system: UO-31; test: NCI tumour cell line growth inhibition, 48 h
Calls of active or inactive are those of the source. Rule as the data show it: active = GI50 up to about 1.1 µM and inactive = higher.
Measure: GI50

Exercise: Entry COc1ccc(C2NC(=S)Nc3c2c(=O)oc2c3ccc3ccccc32)cc1 (centres undefined) has what GI50?
Solution: 77.1 µM (inactive)

Exercise: Let us now turn to Fc1ccc(C2SCc3nc4ccccc4n32)cc1F (centres undefined)
Solution: 13.6 µM (inactive)

Exercise: Let us now turn to CCOC(=O)COc1cccc2c1C(=O)CCO2
Solution: > 100 µM (inactive)

Exercise: Let us now turn to CCN(CC)CCOc1ccc(C(O)(Cc2ccc(OC)cc2)c2ccccc2)cc1 (centres undefined)
Solution: 22 µM (inactive)

Exercise: Let us now turn to COc1ccc(/N=C\c2ccc(N(CCC#N)S(=O)(=O)c3ccccc3)cc2C)cc1
Solution: 23.3 µM (inactive)

Exercise: Let us now turn to C=C(C)CN(CC#N)CC(=C)C
Solution: > 100 µM (inactive)

Exercise: Let us now turn to CC1=NN(c2cccc(Cl)c2)C2(SCC(=O)N2c2nc3ccccc3s2)C1=CC=Cc1ccccc1 (centres undefined)
Solution: 23.6 µM (inactive)

Exercise: Let us now turn to O=C(NNC(=S)Nc1ccccc1)c1nsc2ccccc12
Solution: 25.5 µM (inactive)

Exercise: Let us now turn to COC(=O)N/N=C(\C)C(CN1CCOCC1)C(c1ccccc1)c1cc2ccccc2oc1=O (centres undefined)
Solution: > 100 µM (inactive)

Exercise: Let us now turn to CC(C)(C)OC(=O)N[C@H]1CC2(C=C(Cl)C(=O)C(Cl)=C2)OC1=O
Solution: 18.8 µM (inactive)

Exercise: Let us now turn to COc1cc2c(/C=C3/C(=O)N(C)c4ccc(O)cc43)c(Cl)[nH]c2cc1C
Solution: 1.64 µM (inactive)

Exercise: Let us now turn to Cc1cc2c(c(C(=O)O)c1C)-c1cccc(F)c1C2=O
Solution: 27 µM (inactive)

Exercise: Let us now turn to Cc1[nH]c2ccccc2c1C1Cc2ccccc2N1C(=O)/C=C/C=C/c1ccccc1 (centres undefined)
Solution: > 100 µM (inactive)

Exercise: Let us now turn to O=C(O)/C=C/c1ccc(O)c(O)c1
Solution: 77.6 µM (inactive)

Exercise: Let us now turn to O=C(CSSCC(=O)OCCS(=O)(=O)Nc1ccc(Br)cc1)OCCS(=O)(=O)Nc1ccc(Br)cc1
Solution: 28.6 µM (inactive)

Exercise: Let us now turn to COc1cc(/C=C2\[C@H]3c4c(c(OC)c(C)c(OC)c4OC)C[C@@H](C(=O)N2Cc2ccccc2)N3C(=O)OC(C)C)c(OC)c(C)c1OC
Solution: 66.7 µM (inactive)

Exercise: Let us now turn to Nc1ccc2nc(NCc3ccc(F)cc3)cnc2c1
Solution: 21.3 µM (inactive)

Exercise: Let us now turn to CCOC(=O)/C(=C/c1ccc(C(=O)OC)cc1)N(CC)CC
Solution: 37.2 µM (inactive)

Exercise: Let us now turn to CC12CCC3c4ccc(O)cc4CCC3C1C/C(=N\O)C2O (centres undefined)
Solution: > 100 µM (inactive)

Exercise: Let us now turn to CNS(=O)(=O)NN(C)S(=O)(=O)c1ccc2ccccc2c1
Solution: > 100 µM (inactive)

Exercise: Let us now turn to COc1ccccc1NC(=S)NNC(=O)c1cc(-c2ccccc2)nc2ccccc12
Solution: 11 µM (inactive)

Exercise: Let us now turn to COC(=O)[C@@H](NC(=O)N(CCC#N)CCCN(C(=O)N[C@H](Cc1ccccc1)C(=O)OC)c1ccccc1)C(C)C
Solution: 97.5 µM (inactive)

Exercise: Let us now turn to Clc1ccccc1C1=NN(c2ccccc2)C2c3cc(Br)ccc3OCC12 (centres undefined)
Solution: > 100 µM (inactive)

Exercise: Let us now turn to O=C1C2Nc3ccccc3SC2C(=O)N1c1cccc([N+](=O)[O-])c1 (centres undefined)
Solution: > 90.2 µM (inactive)

Exercise: Let us now turn to O=C(OCCN=C1c2ccccc2CCc2ccccc21)c1cc([N+](=O)[O-])cc([N+](=O)[O-])c1
Solution: 21.9 µM (inactive)

Exercise: Let us now turn to CCCCNS(=O)(=O)c1ccc(-c2ccc3c(c2)-c2ccc(S(=O)(=O)NCCCC)cc2S3(=O)=O)cc1
Solution: 42.5 µM (inactive)

Exercise: Let us now turn to c1ccc2c(c1)c1c(n2CCOCCN2CCOCC2)CCCC1
Solution: 27.1 µM (inactive)

Exercise: Let us now turn to C1CC[N+]23CCCC[N+]2(C1)CCCC3 (centres undefined)
Solution: > 100 µM (inactive)

Exercise: Let us now turn to c1cc2cc3c4c5c(cc6ccc7cc8cc9c%10c8c8c7c6c5c8c5c%10c(c1C9N1CCOCCOCCOCCOCCOCC1)c2c45)C3 (centres undefined)
Solution: > 100 µM (inactive)
